From: paper PMC12586182

Target: PKCβ1 (Homo sapiens, UniProt P05771)
Construct: purchased Carna Biosciences
Sequence (P05771 whole entry): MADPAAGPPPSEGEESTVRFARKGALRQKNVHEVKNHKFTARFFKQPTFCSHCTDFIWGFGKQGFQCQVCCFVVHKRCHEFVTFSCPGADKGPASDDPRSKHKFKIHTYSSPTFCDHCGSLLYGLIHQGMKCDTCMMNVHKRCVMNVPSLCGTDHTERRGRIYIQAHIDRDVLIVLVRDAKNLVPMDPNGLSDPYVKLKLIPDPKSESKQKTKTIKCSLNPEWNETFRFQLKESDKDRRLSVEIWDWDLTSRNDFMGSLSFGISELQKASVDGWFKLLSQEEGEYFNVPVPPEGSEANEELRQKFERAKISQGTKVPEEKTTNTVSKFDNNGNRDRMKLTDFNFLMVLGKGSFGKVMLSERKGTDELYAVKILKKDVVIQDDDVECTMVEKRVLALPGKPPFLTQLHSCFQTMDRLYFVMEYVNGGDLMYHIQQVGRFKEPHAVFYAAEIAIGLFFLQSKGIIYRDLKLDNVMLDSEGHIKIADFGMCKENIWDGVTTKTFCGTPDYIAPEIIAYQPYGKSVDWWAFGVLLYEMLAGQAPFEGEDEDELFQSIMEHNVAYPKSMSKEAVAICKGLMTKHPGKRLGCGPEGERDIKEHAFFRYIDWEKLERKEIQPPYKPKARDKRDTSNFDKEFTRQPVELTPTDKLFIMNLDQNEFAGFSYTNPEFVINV
Assay: Kinase panel profiling at 1 µmol/L (mobility shift assay, Carna)
Assay type: biochemical
Settings: 1 µmol/L of BTK inhibitor
Reported Percentage inhibition of kinase enzyme activity values for the following compounds.
parameter measured: Percentage inhibition of kinase enzyme activity (%)

[[record]]
compound = "O=C(c1ccc(Oc2ccccc2)cc1Cl)c1c[nH]c2ncnc(N[C@@H]3CC[C@@H](CO)OC3)c12 [nemtabrutinib]"
data_value = -3.07

[[record]]
compound = "CC#CC(=O)N1CCC[C@H]1c1nc(-c2ccc(C(=O)Nc3ccccn3)cc2)c2c(N)nccn12 [acalabrutinib]"
data_value = -10.97

[[record]]
compound = "COc1ccc(F)cc1C(=O)NCc1ccc(-c2nn([C@@H](C)C(F)(F)F)c(N)c2C(N)=O)cc1 [pirtobrutinib]"
data_value = 5.78

[[record]]
compound = "C=CC(=O)N1CCC[C@@H](n2nc(-c3ccc(Oc4ccccc4)cc3)c3c(N)ncnc32)C1 [ibrutinib]"
data_value = -2.90


====

Reported Percentage inhibition of kinase enzyme activity values for the following compounds.
Biological target: TIE2 (Homo sapiens, UniProt Q02763)
Construct: purchased Carna Biosciences
Sequence (Q02763 23-1124): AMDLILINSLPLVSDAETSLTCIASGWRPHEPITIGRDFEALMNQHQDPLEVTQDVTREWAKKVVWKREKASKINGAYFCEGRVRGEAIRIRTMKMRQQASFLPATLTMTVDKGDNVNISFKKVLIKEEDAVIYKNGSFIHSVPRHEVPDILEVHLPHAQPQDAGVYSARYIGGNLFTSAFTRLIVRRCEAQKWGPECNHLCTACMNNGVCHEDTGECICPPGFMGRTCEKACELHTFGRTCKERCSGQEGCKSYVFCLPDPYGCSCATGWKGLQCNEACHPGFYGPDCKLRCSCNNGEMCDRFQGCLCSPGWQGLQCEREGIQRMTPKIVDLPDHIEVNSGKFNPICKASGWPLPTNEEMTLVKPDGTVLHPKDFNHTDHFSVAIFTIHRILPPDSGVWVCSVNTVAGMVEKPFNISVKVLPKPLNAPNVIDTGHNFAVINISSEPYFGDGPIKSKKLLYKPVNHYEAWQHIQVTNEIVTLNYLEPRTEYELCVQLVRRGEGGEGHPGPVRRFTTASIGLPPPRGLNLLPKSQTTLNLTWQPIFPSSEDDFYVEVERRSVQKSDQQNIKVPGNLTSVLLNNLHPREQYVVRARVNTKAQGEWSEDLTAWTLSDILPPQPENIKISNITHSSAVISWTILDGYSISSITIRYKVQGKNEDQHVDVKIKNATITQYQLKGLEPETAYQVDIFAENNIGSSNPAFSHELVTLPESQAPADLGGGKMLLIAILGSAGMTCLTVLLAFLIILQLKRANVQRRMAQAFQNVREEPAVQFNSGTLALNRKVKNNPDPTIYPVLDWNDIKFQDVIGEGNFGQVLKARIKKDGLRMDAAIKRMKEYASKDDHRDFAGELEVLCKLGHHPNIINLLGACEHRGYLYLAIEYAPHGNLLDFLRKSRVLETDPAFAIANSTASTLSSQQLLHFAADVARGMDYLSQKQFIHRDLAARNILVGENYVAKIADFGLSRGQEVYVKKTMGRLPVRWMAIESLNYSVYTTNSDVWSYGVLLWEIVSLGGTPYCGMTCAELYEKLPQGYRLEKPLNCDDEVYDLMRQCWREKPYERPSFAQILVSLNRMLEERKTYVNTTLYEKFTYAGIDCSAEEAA
Assay: Kinase panel profiling at 1 µmol/L (mobility shift assay, Carna)
Format: biochemical
Conditions: 1 µmol/L of BTK inhibitor
parameter measured: Percentage inhibition of kinase enzyme activity (%)

[[record]]
compound = "CC#CC(=O)N1CCC[C@H]1c1nc(-c2ccc(C(=O)Nc3ccccn3)cc2)c2c(N)nccn12 [acalabrutinib]"
data_value = -5.36

[[record]]
compound = "C=CC(=O)N1CCC[C@@H](n2nc(-c3ccc(Oc4ccccc4)cc3)c3c(N)ncnc32)C1 [ibrutinib]"
data_value = 29.04

[[record]]
compound = "COc1ccc(F)cc1C(=O)NCc1ccc(-c2nn([C@@H](C)C(F)(F)F)c(N)c2C(N)=O)cc1 [pirtobrutinib]"
data_value = -3.49

[[record]]
compound = "O=C(c1ccc(Oc2ccccc2)cc1Cl)c1c[nH]c2ncnc(N[C@@H]3CC[C@@H](CO)OC3)c12 [nemtabrutinib]"
data_value = 99.74


====

Molecular target: DYRK1B (Homo sapiens)
Construct: purchased Carna Biosciences
Sequence (Q9Y463 whole entry): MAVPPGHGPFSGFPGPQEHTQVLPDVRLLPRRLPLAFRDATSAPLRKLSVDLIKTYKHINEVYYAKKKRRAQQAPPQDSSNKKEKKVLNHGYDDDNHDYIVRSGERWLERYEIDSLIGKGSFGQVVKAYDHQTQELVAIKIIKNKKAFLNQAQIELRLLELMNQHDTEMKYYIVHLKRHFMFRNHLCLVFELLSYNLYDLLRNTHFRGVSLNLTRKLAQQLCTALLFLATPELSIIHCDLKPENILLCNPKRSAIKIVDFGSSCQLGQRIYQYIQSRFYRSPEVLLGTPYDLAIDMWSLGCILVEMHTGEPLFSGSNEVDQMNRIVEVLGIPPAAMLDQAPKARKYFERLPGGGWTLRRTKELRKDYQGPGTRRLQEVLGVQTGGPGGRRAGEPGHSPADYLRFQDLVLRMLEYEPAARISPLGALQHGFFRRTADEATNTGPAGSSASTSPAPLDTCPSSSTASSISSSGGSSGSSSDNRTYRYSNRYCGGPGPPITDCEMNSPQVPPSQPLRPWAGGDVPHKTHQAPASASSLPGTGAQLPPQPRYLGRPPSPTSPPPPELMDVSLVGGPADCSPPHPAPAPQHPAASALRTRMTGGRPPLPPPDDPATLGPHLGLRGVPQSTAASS
Experiment: Kinase panel profiling at 1 µmol/L (mobility shift assay, Carna)
Format: biochemical
Conditions: 1 µmol/L of BTK inhibitor
parameter measured: Percentage inhibition of kinase enzyme activity (%)

[[record]]
smiles_string = "C=CC(=O)N1CCC[C@@H](n2nc(-c3ccc(Oc4ccccc4)cc3)c3c(N)ncnc32)C1"
data_value = 1.91

[[record]]
smiles_string = "CC#CC(=O)N1CCC[C@H]1c1nc(-c2ccc(C(=O)Nc3ccccn3)cc2)c2c(N)nccn12"
data_value = -19.49

[[record]]
smiles_string = "COc1ccc(F)cc1C(=O)NCc1ccc(-c2nn([C@@H](C)C(F)(F)F)c(N)c2C(N)=O)cc1"
data_value = 12.04

[[record]]
smiles_string = "O=C(c1ccc(Oc2ccccc2)cc1Cl)c1c[nH]c2ncnc(N[C@@H]3CC[C@@H](CO)OC3)c12"
data_value = -3.59


====

Target: activated B-RAF (Homo sapiens)
Sequence (P15056 whole entry): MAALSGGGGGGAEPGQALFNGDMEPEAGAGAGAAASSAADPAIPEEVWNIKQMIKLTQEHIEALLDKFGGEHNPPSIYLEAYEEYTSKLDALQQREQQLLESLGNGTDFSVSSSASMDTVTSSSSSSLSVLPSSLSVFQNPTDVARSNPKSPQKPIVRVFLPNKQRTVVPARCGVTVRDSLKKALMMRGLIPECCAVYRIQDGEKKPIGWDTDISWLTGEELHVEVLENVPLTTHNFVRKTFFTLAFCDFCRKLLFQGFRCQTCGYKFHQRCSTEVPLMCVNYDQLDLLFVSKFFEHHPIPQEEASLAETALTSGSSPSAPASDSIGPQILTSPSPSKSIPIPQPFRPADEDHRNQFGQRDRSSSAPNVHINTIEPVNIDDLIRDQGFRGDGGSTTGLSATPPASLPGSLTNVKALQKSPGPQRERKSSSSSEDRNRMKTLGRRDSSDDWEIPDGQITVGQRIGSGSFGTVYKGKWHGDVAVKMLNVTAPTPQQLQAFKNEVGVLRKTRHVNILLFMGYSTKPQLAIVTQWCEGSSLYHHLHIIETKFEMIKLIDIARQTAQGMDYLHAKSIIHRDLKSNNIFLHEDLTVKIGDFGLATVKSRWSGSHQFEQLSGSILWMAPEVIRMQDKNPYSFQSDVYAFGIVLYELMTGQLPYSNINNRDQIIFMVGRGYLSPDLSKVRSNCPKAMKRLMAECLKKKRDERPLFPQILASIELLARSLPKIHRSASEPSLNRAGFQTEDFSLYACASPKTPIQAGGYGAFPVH
Test: biochemical
parameter measured: Kd

[[record]]
smiles_string = "O=C(c1ccc(Oc2ccccc2)cc1Cl)c1c[nH]c2ncnc(N[C@@H]3CC[C@@H](CO)OC3)c12"
data_value = "1.2 µM"


====

Molecular target: NEK9 (Homo sapiens)
Construct: purchased Carna Biosciences
Sequence (Q8TD19 1-979): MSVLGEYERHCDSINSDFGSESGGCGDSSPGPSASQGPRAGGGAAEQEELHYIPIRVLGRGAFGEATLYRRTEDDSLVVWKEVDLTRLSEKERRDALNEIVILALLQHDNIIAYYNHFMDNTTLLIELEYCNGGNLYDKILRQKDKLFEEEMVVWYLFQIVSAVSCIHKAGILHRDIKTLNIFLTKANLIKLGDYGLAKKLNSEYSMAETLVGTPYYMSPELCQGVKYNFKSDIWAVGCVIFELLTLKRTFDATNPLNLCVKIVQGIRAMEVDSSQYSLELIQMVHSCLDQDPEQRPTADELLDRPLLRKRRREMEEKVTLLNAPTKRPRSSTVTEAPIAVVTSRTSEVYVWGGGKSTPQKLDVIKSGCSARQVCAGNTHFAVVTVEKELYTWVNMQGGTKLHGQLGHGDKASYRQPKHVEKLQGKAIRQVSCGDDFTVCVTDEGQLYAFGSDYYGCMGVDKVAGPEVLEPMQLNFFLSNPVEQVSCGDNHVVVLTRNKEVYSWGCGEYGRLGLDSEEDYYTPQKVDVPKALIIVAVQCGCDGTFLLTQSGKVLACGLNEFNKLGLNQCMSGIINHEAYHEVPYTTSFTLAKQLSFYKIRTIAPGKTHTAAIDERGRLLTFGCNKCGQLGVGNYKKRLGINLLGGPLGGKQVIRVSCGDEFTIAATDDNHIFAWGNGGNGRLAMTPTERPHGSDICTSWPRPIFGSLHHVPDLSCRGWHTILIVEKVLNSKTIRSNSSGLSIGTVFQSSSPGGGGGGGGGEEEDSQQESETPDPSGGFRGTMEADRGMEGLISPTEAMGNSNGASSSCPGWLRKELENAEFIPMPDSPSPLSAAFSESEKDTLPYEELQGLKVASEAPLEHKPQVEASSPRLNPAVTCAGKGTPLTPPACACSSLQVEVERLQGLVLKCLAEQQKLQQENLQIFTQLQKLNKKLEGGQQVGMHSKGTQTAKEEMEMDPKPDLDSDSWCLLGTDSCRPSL
Experiment: Kinase panel profiling at 1 µmol/L (mobility shift assay, Carna)
Assay type: biochemical
Conditions: 1 µmol/L of BTK inhibitor
parameter measured: Percentage inhibition of kinase enzyme activity (%)

[[record]]
molecule = "C=CC(=O)N1CCC[C@@H](n2nc(-c3ccc(Oc4ccccc4)cc3)c3c(N)ncnc32)C1 [ibrutinib]"
data_value = -3.28

[[record]]
molecule = "COc1ccc(F)cc1C(=O)NCc1ccc(-c2nn([C@@H](C)C(F)(F)F)c(N)c2C(N)=O)cc1 [pirtobrutinib]"
data_value = -2.20

[[record]]
molecule = "CC#CC(=O)N1CCC[C@H]1c1nc(-c2ccc(C(=O)Nc3ccccn3)cc2)c2c(N)nccn12 [acalabrutinib]"
data_value = -3.18

[[record]]
molecule = "O=C(c1ccc(Oc2ccccc2)cc1Cl)c1c[nH]c2ncnc(N[C@@H]3CC[C@@H](CO)OC3)c12 [nemtabrutinib]"
data_value = -0.83

